# target_or_system: HLA-A*0201 (human)
# assay: competition with 125I-labelled standard peptide for purified HLA, gel filtration
# condition_details: scale: ratio
readout: binding affinity ratio

binder="LAGAKGVIL (modifications not checked) [… (PSM, position 219, 9 amino acids)]" observed_result=0.0002

a. SLFHPEDT (modifications not checked) [PSA peptide SLFHPEDT (position 75, 8 amino acids)]
b. SLLKHQSL (modifications not checked) [Kallikrein (hK2) peptide SLLKHQSL (position 104, 8 amino acids)]
c. LLRLSEPA (modifications not checked) [LLRLSEPA (Kallikrein, position 123, 8 amino acids)]
// smallest binding affinity ratio at index 0, largest at the end Write the labels in rank order as requested. c, b, a
